In this section, each of the compounds is paired with its reported Ki.
# Assay System: human NEP (Homo sapiens (Human))
# Sequence (P08473 52-750): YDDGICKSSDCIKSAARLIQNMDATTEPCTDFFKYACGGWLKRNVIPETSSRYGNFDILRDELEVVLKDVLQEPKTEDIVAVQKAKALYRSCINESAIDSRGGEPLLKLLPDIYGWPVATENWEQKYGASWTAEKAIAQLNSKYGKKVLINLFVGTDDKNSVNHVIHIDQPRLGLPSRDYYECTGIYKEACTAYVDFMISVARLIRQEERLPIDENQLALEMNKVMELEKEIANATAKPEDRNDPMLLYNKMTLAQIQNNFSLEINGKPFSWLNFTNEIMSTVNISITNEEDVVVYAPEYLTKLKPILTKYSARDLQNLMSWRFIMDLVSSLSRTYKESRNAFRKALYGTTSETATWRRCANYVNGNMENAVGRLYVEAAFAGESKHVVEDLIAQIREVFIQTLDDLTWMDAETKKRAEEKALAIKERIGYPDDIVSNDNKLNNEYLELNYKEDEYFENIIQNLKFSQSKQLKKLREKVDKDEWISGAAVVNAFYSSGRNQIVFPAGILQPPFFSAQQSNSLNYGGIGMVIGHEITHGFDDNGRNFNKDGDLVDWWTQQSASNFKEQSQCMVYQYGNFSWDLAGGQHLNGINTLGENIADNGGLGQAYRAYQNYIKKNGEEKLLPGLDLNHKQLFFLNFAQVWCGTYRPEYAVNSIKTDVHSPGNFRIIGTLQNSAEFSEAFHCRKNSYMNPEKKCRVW
# Assay Procedure: In vitro enzyme inhibition assay at human NEP
# Condition Label: pKi, recombinant human NEP, fluorogenic peptide substrate, 37° C.

These solved cases illustrate the format of a correct answer.
CCOc1nc(C(=O)N[C@H](Cc2ccc(-c3cc(Cl)ccc3F)cc2)C[C@@H](CN)C(=O)O)co1    1.26 to 3.16 nM
O=C(N[C@H](Cc1ccc(-c2cc(Cl)ccc2F)cc1)CC(C(=O)O)c1cccs1)c1cnn[nH]1 (stereo in doubt)    1.26 to 3.16 nM
O=C(N[C@H](Cc1ccc(-c2cc(Cl)ccc2F)cc1)C[C@@H](NC(=O)[C@@H]1CCCN1)C(=O)O)c1cnn[nH]1    3.16 to 10 nM

Query :: Which value of Ki has been reported for O=C(N[C@H](Cc1ccc(-c2ccccc2)cc1)CC(C(=O)O)C1CCOCC1)c1cnn[nH]1 (stereo in doubt) in the records?
Result :: 3.16 to 10 nM

Query :: Which value of Ki has been reported for O=C(N[C@H](Cc1ccc(-c2cc(Cl)ccc2F)cc1)CC(C(=O)O)C1CCNCC1)c1cnn[nH]1 (stereo in doubt) in the records?
Result :: ≤ 1 nM

Query :: Which value of Ki has been reported for `Cc1cc(C(=O)N[C@H](Cc2ccc(-c3cc(Cl)ccc3F)cc2)C[C@@H](CN)C(=O)O)sn1` in the records?
Result :: 1.26 to 3.16 nM

Query :: Which value of Ki has been reported for `CC(C)c1coc(C(=O)N[C@H](Cc2ccc(-c3cc(Cl)ccc3F)cc2)C[C@@H](NC(=O)[C@@H](N)C(C)C)C(=O)O)n1` in the records?
Result :: 1.26 to 3.16 nM
